target: Integrin alpha-IIb/beta-3 (Homo sapiens, UniProt P08514+P05106); assay: Inhibition of aggregation of human gel-purified platelets (GPIIbIIIa GPP)
Sequence (P05106 27-788 limits assumed): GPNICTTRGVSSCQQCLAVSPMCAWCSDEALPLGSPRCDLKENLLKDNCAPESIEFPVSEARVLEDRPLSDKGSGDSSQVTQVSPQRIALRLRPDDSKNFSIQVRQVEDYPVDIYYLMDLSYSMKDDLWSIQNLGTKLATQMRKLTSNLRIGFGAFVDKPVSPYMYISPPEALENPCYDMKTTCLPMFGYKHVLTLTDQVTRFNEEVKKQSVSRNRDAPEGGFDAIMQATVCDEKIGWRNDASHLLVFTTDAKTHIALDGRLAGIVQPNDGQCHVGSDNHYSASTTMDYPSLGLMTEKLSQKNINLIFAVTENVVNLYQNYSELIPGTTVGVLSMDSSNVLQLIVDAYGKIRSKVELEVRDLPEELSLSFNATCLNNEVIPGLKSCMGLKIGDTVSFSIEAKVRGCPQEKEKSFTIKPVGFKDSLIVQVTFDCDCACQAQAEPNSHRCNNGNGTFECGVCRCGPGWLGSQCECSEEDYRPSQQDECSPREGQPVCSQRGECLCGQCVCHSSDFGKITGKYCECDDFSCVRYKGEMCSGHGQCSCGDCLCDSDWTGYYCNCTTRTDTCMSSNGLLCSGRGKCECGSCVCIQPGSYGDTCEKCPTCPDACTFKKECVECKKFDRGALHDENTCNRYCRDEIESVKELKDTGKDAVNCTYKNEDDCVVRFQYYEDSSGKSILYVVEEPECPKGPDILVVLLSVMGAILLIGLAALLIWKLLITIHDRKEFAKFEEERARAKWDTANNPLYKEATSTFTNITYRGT
Sequence (P08514 32-887 limits assumed): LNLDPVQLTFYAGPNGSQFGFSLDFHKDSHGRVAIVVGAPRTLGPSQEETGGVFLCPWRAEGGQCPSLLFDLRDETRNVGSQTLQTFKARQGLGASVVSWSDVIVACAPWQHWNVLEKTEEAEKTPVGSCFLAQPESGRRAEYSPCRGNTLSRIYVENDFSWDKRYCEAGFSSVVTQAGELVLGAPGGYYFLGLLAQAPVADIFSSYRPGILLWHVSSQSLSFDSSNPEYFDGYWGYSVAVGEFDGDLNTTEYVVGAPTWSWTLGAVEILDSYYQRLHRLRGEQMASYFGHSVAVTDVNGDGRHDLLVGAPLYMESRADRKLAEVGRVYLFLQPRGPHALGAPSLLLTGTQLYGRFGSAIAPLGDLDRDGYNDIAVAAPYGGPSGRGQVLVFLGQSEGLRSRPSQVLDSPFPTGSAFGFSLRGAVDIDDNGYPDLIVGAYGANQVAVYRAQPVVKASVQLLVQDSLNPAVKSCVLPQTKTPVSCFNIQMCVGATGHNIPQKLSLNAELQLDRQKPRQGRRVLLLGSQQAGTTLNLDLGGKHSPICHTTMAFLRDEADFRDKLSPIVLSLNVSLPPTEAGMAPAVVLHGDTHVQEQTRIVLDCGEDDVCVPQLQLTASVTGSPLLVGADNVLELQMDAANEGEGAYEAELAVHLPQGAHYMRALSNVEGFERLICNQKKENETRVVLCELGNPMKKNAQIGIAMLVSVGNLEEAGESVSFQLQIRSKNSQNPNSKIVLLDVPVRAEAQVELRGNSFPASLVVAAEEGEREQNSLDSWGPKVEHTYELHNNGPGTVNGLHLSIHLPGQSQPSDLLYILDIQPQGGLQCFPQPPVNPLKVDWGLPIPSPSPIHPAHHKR
Sequence (P08514 891-1039 limits assumed): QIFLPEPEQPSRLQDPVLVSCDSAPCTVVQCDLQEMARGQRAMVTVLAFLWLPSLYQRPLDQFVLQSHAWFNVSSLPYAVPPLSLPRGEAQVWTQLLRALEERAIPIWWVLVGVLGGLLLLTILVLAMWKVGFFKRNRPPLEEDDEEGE
pIC50: −log10 of the molar value.
recorded-endpoint: pIC50

compound_string=O=C(NC[C@H](NS(=O)(=O)c1ccc(C(F)(F)F)cc1)C(=O)O)c1ccc2c(cnn2CCCNc2ncc[nH]2)c1 recorded_endpoint=pIC50 recorded_value=5.36

1 = O=C(NC[C@H](NS(=O)(=O)c1ccc(-c2ccccc2)cc1)C(=O)O)c1ccc2c(cnn2CCCNc2ncc[nH]2)c1
2 = Cc1cc(C)c(S(=O)(=O)N[C@@H](CC(=O)Nc2ccc3c(cnn3CCCNc3ccccn3)c2)C(=O)O)c(C)c1
3 = Cc1cc(C)c(S(=O)(=O)N[C@H](CNC(=O)c2ccc3c(cnn3CCCNc3ncc[nH]3)c2)C(=O)O)c(C)c1
4 = Cc1cccc(C)c1S(=O)(=O)N[C@@H](CNC(=O)c1ccc2c(cnn2CCCNc2ncc[nH]2)c1)C(=O)O
Arrange the 4 compounds by rising pIC50, starting with the smallest. Show the ranking through the labels, in the order asked for.
2, 3, 1, 4
(2: 4.39, 3: 5.30, 1: 6.89, 4: 7.13)

###

biological target: Integrin alpha-IIb/beta-3 (Homo sapiens, UniProt P08514+P05106); experiment: Inhibition of aggregation of human gel-purified platelets (GPIIbIIIa GPP)
pIC50: −log10 of the molar value.
recorded-endpoint: pIC50

compound_string=O=C(NC[C@H](NS(=O)(=O)c1ccccc1)C(=O)O)c1ccc2c(cnn2CCCNc2ncc[nH]2)c1 recorded_endpoint=pIC50 recorded_value=7.47

P = O=C(NC[C@H](NS(=O)(=O)c1c(Cl)cccc1Cl)C(=O)O)c1ccc2c(cnn2CCCNc2ncc[nH]2)c1
Q = O=C(NC[C@H](NS(=O)(=O)c1ccc(Cl)c(Cl)c1)C(=O)O)c1ccc2c(cnn2CCCNc2ncc[nH]2)c1
R = O=C(NC[C@H](NS(=O)(=O)NCc1ccccc1)C(=O)O)c1ccc2c(cnn2CCCNc2ccccn2)c1
Arrange the 3 compounds by rising pIC50, starting with the smallest. Show the ranking through the labels, in the order asked for.
R, Q, P

###

molecular target: Integrin alpha-IIb/beta-3 (Homo sapiens, UniProt P08514+P05106); test: Inhibition of aggregation of human gel-purified platelets (GPIIbIIIa GPP)
recorded-endpoint: IC50 (µM)

Worked cases, IC50 given:
compound_string=CC(C)COC(=O)N[C@@H](CNC(=O)c1ccc2c(cnn2CCCNc2ccccn2)c1)C(=O)O target_desc="Integrin alpha-IIb/beta-3 (Homo sapiens, UniProt P08514+P05106)" recorded_value=25
compound_string=CC(C)(C)c1ccc(S(=O)(=O)N[C@@H](CNC(=O)c2ccc3c(cnn3CCCNc3ncc[nH]3)c2)C(=O)O)cc1 target_desc="Integrin alpha-IIb/beta-3 (Homo sapiens, UniProt P08514+P05106)" recorded_value=2

P = O=C(NC[C@H](NS(=O)(=O)c1ccc2ccccc2c1)C(=O)O)c1ccc2c(cnn2CCCNc2ncc[nH]2)c1
Q = CCCCS(=O)(=O)N[C@@H](CNC(=O)c1ccc2c(cnn2CCCNc2ccccn2)c1)C(=O)O
Compare reported IC50 values for P and Q . Which is lower? To answer, give the label that identifies your chosen option.
P
(P: 0.081 µM, Q: 9 µM)

###

molecular target: Integrin alpha-IIb/beta-3 (Homo sapiens, UniProt P08514+P05106); experiment: Inhibition of aggregation of human gel-purified platelets (GPIIbIIIa GPP)
recorded-endpoint: IC50 (nM)

Worked cases, IC50 given:
compound_string=Cc1cc(C)c(S(=O)(=O)N[C@@H](CNC(=O)c2ccc3c(cnn3CCCNc3ccccn3)c2)C(=O)O)c(C)c1 target_desc="Integrin alpha-IIb/beta-3 (Homo sapiens, UniProt P08514+P05106)" measurement_units=nM recorded_value=220
compound_string=Cc1cc(-c2ccccc2)cc(C)c1S(=O)(=O)N[C@@H](CNC(=O)c1ccc2c(cnn2CCCNc2ncc[nH]2)c1)C(=O)O target_desc="Integrin alpha-IIb/beta-3 (Homo sapiens, UniProt P08514+P05106)" measurement_units=nM recorded_value=74
compound_string=O=C(NC[C@H](NS(=O)(=O)c1ccccc1)C(=O)O)c1ccc2c(cnn2CCCNc2ccccn2)c1 target_desc="Integrin alpha-IIb/beta-3 (Homo sapiens, UniProt P08514+P05106)" measurement_units=nM recorded_value=290
compound_string=Cc1cc(C)c(S(=O)(=O)N[C@@H](CNC(=O)c2ccc3c(cnn3CCCNC3=NCCN3)c2)C(=O)O)c(C)c1 target_desc="Integrin alpha-IIb/beta-3 (Homo sapiens, UniProt P08514+P05106)" measurement_units=nM recorded_value=57
compound_string=O=C(NC[C@H](NS(=O)(=O)c1cccc2ccccc12)C(=O)O)c1ccc2c(cnn2CCCNc2ncc[nH]2)c1 target_desc="Integrin alpha-IIb/beta-3 (Homo sapiens, UniProt P08514+P05106)" measurement_units=nM recorded_value=39

1 = Cc1cc(C)c(S(=O)(=O)N[C@@H](CNC(=O)c2ccc3c(cnn3CCCNC3=NCCCN3)c2)C(=O)O)c(C)c1
2 = Cc1cc(C)c(S(=O)(=O)N[C@@H](CNC(=O)c2ccc3c(cnn3CCCNc3ncc[nH]3)c2)C(=O)O)c(C)c1
Of the two listed items, which has the higher IC50? First: 1 Second: 2 To answer, give the label that identifies your chosen option.
1
(1: 66 nM, 2: 21 nM)

Taken from BindingDB's records for doi:10.1021/jm990049j.
